FYI, the data here is from the supplement of paper PMC10065799.

molecular target: Jak2 (UniProt O60674); assay: phosphorylation enrichment, bacterial display (enrichment ratio); higher = better substrate or ligand; peptides without Tyr show the background
Sequence (O60674 whole entry, looked up): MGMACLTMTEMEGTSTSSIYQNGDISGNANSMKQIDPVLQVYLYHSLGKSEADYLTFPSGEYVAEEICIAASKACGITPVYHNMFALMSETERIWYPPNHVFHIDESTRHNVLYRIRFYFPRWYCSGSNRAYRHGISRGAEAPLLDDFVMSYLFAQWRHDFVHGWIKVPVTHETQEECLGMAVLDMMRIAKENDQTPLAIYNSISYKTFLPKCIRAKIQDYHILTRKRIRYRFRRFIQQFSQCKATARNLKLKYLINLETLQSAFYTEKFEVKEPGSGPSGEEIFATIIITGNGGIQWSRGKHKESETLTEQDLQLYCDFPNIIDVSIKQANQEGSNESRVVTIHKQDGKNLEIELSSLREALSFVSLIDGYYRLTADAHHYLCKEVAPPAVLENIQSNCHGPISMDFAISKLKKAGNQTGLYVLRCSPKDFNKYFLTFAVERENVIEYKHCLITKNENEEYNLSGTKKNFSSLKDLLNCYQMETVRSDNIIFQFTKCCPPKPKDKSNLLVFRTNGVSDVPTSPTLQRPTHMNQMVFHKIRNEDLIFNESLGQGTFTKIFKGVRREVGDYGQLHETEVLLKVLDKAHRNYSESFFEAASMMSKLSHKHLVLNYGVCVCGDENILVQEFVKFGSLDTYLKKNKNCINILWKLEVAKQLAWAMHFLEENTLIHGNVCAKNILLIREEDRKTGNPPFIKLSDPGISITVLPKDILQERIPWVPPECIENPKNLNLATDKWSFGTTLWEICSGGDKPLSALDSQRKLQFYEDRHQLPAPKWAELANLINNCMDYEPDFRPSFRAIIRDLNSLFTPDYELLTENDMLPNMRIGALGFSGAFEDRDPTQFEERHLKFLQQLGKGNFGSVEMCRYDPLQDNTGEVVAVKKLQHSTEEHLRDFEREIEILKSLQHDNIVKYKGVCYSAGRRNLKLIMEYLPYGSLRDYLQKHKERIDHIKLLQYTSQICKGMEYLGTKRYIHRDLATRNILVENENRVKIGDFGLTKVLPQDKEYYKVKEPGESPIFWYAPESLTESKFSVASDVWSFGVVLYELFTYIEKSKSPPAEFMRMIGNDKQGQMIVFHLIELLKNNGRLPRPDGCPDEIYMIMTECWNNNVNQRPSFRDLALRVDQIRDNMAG
value-kind: phosphorylation enrichment
Answers are plain numbers.

Example entries begin here.
The sequence listed as RTLTHYKSAVK [ASNS_Y555] has a reported phosphorylation enrichment of 0.801

Short answer for PQAVRYIFTID [DCX_Y103_G100A_YF] : phosphorylation enrichment was 0.806

Next:
The measured phosphorylation enrichment associated with VDSLRYIFPKL [EIF2B3_Y92_A87V_YF] reads 0.822

###

biological target: SHP2-C SH2; assay: SH2 binding enrichment of the phosphorylated peptide, bacterial display (enrichment ratio); higher = better substrate or ligand; peptides without Tyr show the background;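 also: peptide library displayed on the E. coli surface as eCPX fusions, selected cells deep-sequenced, score is each peptide's frequency after selection divided by its frequency in the input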
Answer each item with its documented SH2 binding enrichment.

Check out these entries, answers already filled in.
Entry RLEPVYFVAPA [LAMC2_Y250_D247E] ; SH2 binding enrichment = 0.709

KRPAVYIDEEA [EPM2A_Y304] yielded SH2 binding enrichment of 0.709

Measured SH2 binding enrichment, LEFGDCHPLKP [VPS35L_Y32_Y32C] : 0.613

Shifting focus to the sequence that follows.
The sequence identified as NGPDVYVLPVT [AATK_Y93_L97V] registered its SH2 binding enrichment at 0.617

###

target: Fyn (UniProt P06241); assay: phosphorylation enrichment, bacterial display (enrichment ratio); higher = better substrate or ligand; peptides without Tyr show the background
Sequence (P06241 whole entry, looked up): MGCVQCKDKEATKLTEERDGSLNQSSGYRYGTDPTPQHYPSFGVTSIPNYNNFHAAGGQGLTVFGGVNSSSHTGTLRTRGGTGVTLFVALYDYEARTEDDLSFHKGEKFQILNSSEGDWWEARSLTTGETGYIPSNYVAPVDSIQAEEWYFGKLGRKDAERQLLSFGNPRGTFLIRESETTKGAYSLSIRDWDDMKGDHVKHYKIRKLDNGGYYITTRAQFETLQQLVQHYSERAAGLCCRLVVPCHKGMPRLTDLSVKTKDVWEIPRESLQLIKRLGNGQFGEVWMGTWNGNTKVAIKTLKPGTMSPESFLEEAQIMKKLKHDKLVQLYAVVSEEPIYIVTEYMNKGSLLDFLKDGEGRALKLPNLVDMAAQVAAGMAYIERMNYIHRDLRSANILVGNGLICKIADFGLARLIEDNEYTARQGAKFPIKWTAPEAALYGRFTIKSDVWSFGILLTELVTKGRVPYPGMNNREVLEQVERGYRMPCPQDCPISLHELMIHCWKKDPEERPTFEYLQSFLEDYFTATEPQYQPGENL
value-kind: phosphorylation enrichment
One number for each entry.

Below, 5 sequences whose answers are already recorded.
Reported phosphorylation enrichment of IRTIDYRYTVW [IDS_Y497] : 0.493

The reported value for HRNNNYEPNLF [BRCA2_Y57_K53R] in terms of phosphorylation enrichment is 0.583

Form field phosphorylation enrichment, entry AGQEDDDRLRP [RAC1_Y64_Y64D] : 0.608

phosphorylation enrichment recorded for this sequence, DKNSSYFADWL [TUBB8_Y340] , is 0.584

The reported value for KSEMSYIDGEK [SORBS1_Y485] in terms of phosphorylation enrichment is 0.502

Others:
Form: sequence = VIEYSYTSADG [DHCR7_Y382_C380Y] ; phosphorylation enrichment = 0.497

###

molecular target: Jak2 (UniProt O60674); experiment: phosphorylation enrichment, bacterial display (enrichment ratio); higher = better substrate or ligand; peptides without Tyr show the background
value-kind: phosphorylation enrichment
One number for each entry.

Completed entries (count: 2):
Jak2 (UniProt O60674) phosphorylation enrichment of KKEGPYDVVVL [PARK7_Y67] is 0.691

Lab note: sequence FHLLPYTVRAM [PARS2_Y93_YF] tested on Jak2 (UniProt O60674); recorded phosphorylation enrichment was 0.691

Okay, now this sequence:
Measured phosphorylation enrichment for this entry GPGLVYRVANK [FLNB_Y1833_G1834R] on Jak2 (UniProt O60674): 0.688

###

molecular target: Fyn (UniProt P06241); assay: phosphorylation enrichment, bacterial display (enrichment ratio); higher = better substrate or ligand; peptides without Tyr show the background
Label criterion met when phosphorylation enrichment is at or above 0.6; anything below gets criterion not met.

Reported phosphorylation enrichment at or above 0.6? TEQMAYCPIQC [SHC4_Y403]
criterion not met

More entries:
# check: phosphorylation enrichment of RTLTHYKSAVK [ASNS_Y555] is greater than or equal to 0.6
criterion not met

Does phosphorylation enrichment meet or surpass 0.6 for HLPAGYIIPLQ [GAA_Y822_R819P] ?
criterion not met

Could you please find out whether VTRAKYFIRDE [GNAS_Y339] has phosphorylation enrichment that meets 0.6 or exceeds it?
criterion not met
